# system-under-test: UniProt Q9QUR6
# Sequence (Q9QUR6 whole entry, looked up): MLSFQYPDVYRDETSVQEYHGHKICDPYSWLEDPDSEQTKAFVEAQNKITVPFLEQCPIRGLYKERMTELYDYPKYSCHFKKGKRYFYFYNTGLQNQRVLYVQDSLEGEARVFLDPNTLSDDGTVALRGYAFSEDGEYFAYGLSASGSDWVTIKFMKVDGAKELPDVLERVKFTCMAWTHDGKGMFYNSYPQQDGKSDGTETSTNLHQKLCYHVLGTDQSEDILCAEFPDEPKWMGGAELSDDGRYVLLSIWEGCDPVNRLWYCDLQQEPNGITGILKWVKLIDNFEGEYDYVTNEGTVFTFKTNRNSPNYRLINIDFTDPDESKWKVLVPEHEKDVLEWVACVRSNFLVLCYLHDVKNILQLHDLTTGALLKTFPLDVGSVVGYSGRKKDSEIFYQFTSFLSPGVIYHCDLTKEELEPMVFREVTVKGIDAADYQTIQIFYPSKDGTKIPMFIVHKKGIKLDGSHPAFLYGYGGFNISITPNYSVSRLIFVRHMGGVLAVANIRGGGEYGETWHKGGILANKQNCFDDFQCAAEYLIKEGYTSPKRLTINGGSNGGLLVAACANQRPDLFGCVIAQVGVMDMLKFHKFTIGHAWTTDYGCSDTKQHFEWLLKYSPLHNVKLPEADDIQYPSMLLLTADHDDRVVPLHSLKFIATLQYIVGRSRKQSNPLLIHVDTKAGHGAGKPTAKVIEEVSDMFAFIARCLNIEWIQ
# experimental-protocol: competitive ABPP of Abhd10 versus anti-targets – biochemical, fluorescence, gel-based, mouse proteome, selectivity assay for PME-1 inhibitor project, late-stage follow-up (AID 588807)
# test-context: PREP, anti-target, at 10 µM, stronger effect = higher value
# thresholds on inhibition define classes: group A: < 40%; group B: ≥ 40% and < 70%; group C: ≥ 70%

Exercise: read the entry C=CCOC(=O)N1C(=O)[C@@](CC)(c2cccc(C)c2)N1C(=O)OCC=C and state which class it falls under.
group B

Exercise: read the entry CCCOC(=O)N1C(=O)[C@@](CC)(c2ccc(C)cc2)N1C(=O)OCCC and state which class it falls under.
group B

###

# system-under-test: Palmitoyl-protein thioesterase ABHD10, mitochondrial (Mus musculus) (UniProt Q6PE15)
# Sequence (Q6PE15 whole entry, looked up): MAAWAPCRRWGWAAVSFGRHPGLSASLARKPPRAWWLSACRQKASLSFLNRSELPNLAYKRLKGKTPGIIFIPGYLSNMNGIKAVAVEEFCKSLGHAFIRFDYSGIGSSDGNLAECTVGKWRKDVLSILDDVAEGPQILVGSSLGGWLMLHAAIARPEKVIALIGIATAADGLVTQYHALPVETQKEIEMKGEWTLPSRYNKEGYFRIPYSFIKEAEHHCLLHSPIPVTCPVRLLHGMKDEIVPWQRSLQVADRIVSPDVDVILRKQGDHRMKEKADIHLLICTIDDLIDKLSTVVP
# experimental-protocol: competitive ABPP of Abhd10 versus anti-targets – biochemical, fluorescence, gel-based, mouse proteome, selectivity assay for PME-1 inhibitor project, late-stage follow-up (AID 588807)
# test-context: inhibition, at 0.1 µM, stronger effect = higher value
met means recorded inhibition is 70% or above; not met means it is below 70%.

Use the examples below as a reference point.
• CC[C@@]1(c2cccc(C)c2)C(=O)N(C(=O)OC)N1C(=O)OC = not met
• CC[C@@]1(c2cccc(C)c2)C(=O)N(C(=O)OC(C)C)N1C(=O)OC(C)C = not met
• CC[C@@]1(c2ccccc2C)C(=O)N(C(=O)OC)N1C(=O)OC = not met
• CC[C@@]1(c2ccc(Cl)c(Cl)c2)C(=O)N(C(=O)OC(C)C)N1C(=O)OC(C)C = not met
• C=CCOC(=O)N1C(=O)[C@@](CC)(c2ccc(C)cc2)N1C(=O)OCC=C = met

Decide: inhibition of CCCOC(=O)N1C(=O)C(CC)(c2cccc(C)c2)N1C(=O)OCCC (centres undefined) >= 70%?
not met

Decide: inhibition of CCCOC(=O)N1C(=O)[C@@](CC)(c2ccc(C)cc2)N1C(=O)OCCC >= 70%?
met

Decide: inhibition of Cc1cccc([C@]2(C)C(=O)N(C(=O)OC(C)C)N2C(=O)OC(C)C)c1 >= 70%?
not met

###

# system-under-test: Prolyl endopeptidase (Mus musculus)
# experimental-protocol: competitive ABPP of Abhd10 versus anti-targets – biochemical, fluorescence, gel-based, mouse proteome, selectivity assay for PME-1 inhibitor project, late-stage follow-up (AID 588807)
# test-context: PREP, anti-target, at 10 µM, stronger effect = higher value
measure: inhibition (%)
One number for each entry, in %.

Answered cases to consult:
- CC[C@@]1(c2cccc(C)c2)C(=O)N(C(=O)OCC(Cl)(Cl)Cl)N1C(=O)OCC(Cl)(Cl)Cl: 10
- CC[C@@]1(c2cccc(C)c2)C(=O)N(C(=O)OC(C)(C)C)N1C(=O)OC(C)(C)C: 0
- CC[C@@]1(c2ccccc2C)C(=O)N(C(=O)OC)N1C(=O)OC: 70
- CC[C@@]1(c2cccc(F)c2)C(=O)N(C(=O)OC)N1C(=O)OC: 70
- CC[C@@]1(c2cccc(C)c2)C(=O)N(C(=O)OC)N1C(=O)OC: 85

Please supply inhibition for each of the following items, keeping them in order.
1. CC[C@@]1(c2cccc(C)c2)C(=O)N(C(=O)OCc2ccccc2)N1C(=O)OCc1ccccc1
2. C=CCOC(=O)N1C(=O)[C@@](CC)(c2ccccc2)N1C(=O)OC
3. CC[C@@]1(c2cccc(Cl)c2)C(=O)N(C(=O)OC(C)C)N1C(=O)OC(C)C
4. Cc1cccc([C@]2(C)C(=O)N(C(=O)OC(C)C)N2C(=O)OC(C)C)c1
5. CC[C@@]1(c2ccc(C)cc2)C(=O)N(C(=O)OC)N1C(=O)OC
6. CC[C@@]1(c2ccc(Cl)c(Cl)c2)C(=O)N(C(=O)OC(C)C)N1C(=O)OC(C)C
7. CC[C@@]1(c2ccc(OC)cc2)C(=O)N(C(=O)OC)N1C(=O)OC

1. 90
2. 25
3. 95
4. 40
5. 50
6. 80
7. 40

Please supply inhibition for each of the following items, keeping them in order.
1. CC[C@]1(c2ccc(C)cc2)C(=O)N(C(=O)OC(C)C)N1C(=O)OC(C)C
2. CC[C@@]1(c2ccc(OC)cc2)C(=O)N(C(=O)OC(C)C)N1C(=O)OC(C)C
3. CCCOC(=O)N1C(=O)C(CC)(c2cccc(C)c2)N1C(=O)OCCC (stereo not given)

1: 0; 2: 30; 3: 60

Data origin: PubChem BioAssay AID588807
